Molecular target: VcINDY (Vibrio cholerae, UniProt Q9KNE0)
measuredProperty: pKd
pKd (log units): -log10 of the concentration in mol/L.

INPUT: Name the reported pKd value associated with the compound O=C(O)CCC(=O)O [succinate]
OUTPUT: 4.04
